assay: Bioavailability in rat; format: ADME, organism-based; conditions: in vivo
MEASURE: bioavailability (%)

a: CC(C)[C@@H]1CC[C@@H](C)C[C@H]1OCC(=O)Nc1cc(Oc2ccc(C(=O)O)cc2)ccc1[N+](=O)[O-]
b: COc1cccc(CNc2ccc(N3CCN(c4cccc(C(F)(F)F)c4)CC3)c(C(F)(F)F)c2)c1Oc1ccc([N+](=O)[O-])cc1C(=O)O
Between a and b , whose measured bioavailability reads higher? Select an item and report its label. b
(b: 43%, a: 23%)

----------
test: Volume of distribution of compound in rats after intravenous administration; format: ADME, organism-based; conditions: rat, in vivo, read-out: Vdss
MEASURE: Vd (L/kg)

I: CC(C)[C@@H]1CC[C@@H](C)C[C@H]1OCC(=O)Nc1cc(Oc2ccc(C(=O)O)cc2)ccc1[N+](=O)[O-]
II: COc1cccc(CNc2ccc(N3CCN(c4cccc(C(F)(F)F)c4)CC3)c(C(F)(F)F)c2)c1Oc1ccc([N+](=O)[O-])cc1C(=O)O
Between I and II , whose measured Vd reads higher? Select an item and report its label. II
(II: 1.33 L/kg, I: 0.4 L/kg)
